biological target: Torsin-1A (Homo sapiens); assay: torsin A binders from cell lysate, primary screen, small-molecule microarray, wild-type, 635/667 nm (AID 1149); conditions: COS7 hTOR1A-WT lysate, 635 nm fluorescence, higher = more signal
Reported composite z-score values follow for various compounds

Query: GET /values?readout=composite z-score&item= COc1ccc([Si](C)(C)[C@H]2[C@H](CCO)O[C@@]3(C(=O)N(Cc4cccc(N5CCCCC5=O)c4)c4ccccc43)[C@@H]2C)cc1
Result: -0.0387

Query: Which value of composite z-score has been reported for O=C1NC(=O)C2C1C=CC(C(O)c1cc(C(F)(F)F)cc(C(F)(F)F)c1)N2Nc1ccc(Cl)cc1Cl (centres undefined) in the records?
Result: -0.371

Query: Which composite z-score is reported for this compound? C[C@@H]1ON(c2ccc(C(=O)OC(C)(C)C)cc2)[C@H](c2ccc(Br)cc2)[C@H]1C(=O)N1C(=O)OC[C@H]1Cc1ccccc1
Result: 0.673

Query: Can you share its composite z-score? I mean this compound: CCCNC(=O)[C@@]1(c2ccc([N+](=O)[O-])cc2)CC(=O)N(C2CCCCC2)[C@@H]1c1ccc(CO)cc1I
Result: 0.224

* * *

biological target: Torsin-1A-interacting protein 2 (Homo sapiens); test: LULL1 binders on small-molecule microarray, primary screen, cell lysate, human LULL1 lysate, 635/667 nm fluorescence (AID 1092); details: hLULL1 lysate binding, 635 nm fluorescence, higher = more signal;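 note: probe is lysate of COS7 cells overexpressing human LULL1; score merges per-feature 667 nm fluorescence with signal-to-noise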
Assign condition met whenever composite z-score does not fall below 2; assign condition not met whenever it does.

INSERT INTO results (molecule, label_value) VALUES
  ('CC[C@H]1C2=C3C(CC[C@H]4C(OCc5ccc(F)cc5C(F)(F)F)OC[C@](C)([C@@H]34)N(C(=O)OC(C)(C)C)C2)C2COC(=O)OCC21 (some centres not stated)', 'condition met'),
  ('CCOC(=CC(=O)OC)CC(O)c1cccc(Cl)c1 (configuration not stated)', 'condition met'),
  ('C=CCOC(=O)[C@@H]1[C@H]2C(=O)O[C@H](c3ccccc3)[C@H](c3ccccc3)N2[C@H](c2ccc(OCCOC(=O)[C@H]3C[C@H]4C(=O)N[C@@H](CCCC[N+](C)(C)C)C(=O)N4[C@H]3c3ccc(O)cc3)cc2)[C@@]12C(=O)Nc1ccc(I)cc12', 'condition met');

Query: Test whether the molecule CC(C)CCC[C@@H](C)[C@H]1CC[C@@]2(C)C3=C(CC[C@]12C)[C@@]1(C)CC[C@H](OC(=O)c2ccc(Br)cc2)C(C)(C)C1CC3 (some centres not stated) records composite z-score of 2 or higher.
Result: condition not met

Query: Has CCCN1C(=O)[C@]2(Cc3ccccc3)N=C(c3ccc(OCCCO)cc3)O[C@@H]2c2ccccc21 a recorded composite z-score greater than or equal to 2?
Result: condition met

Query: Reported composite z-score reaches at least 2 for O=c1cccc(-c2cccc(Cl)c2)o1 ?
Result: condition not met

Query: Is reported composite z-score greater than or equal to 2 here: C=CC[C@@]1(C(=O)N2CCCCC2)N=C(c2ccc(OCCCO)cc2)O[C@@H]1c1ccccc1
Result: condition met

* * *

test: small-molecule binders of probe aLefty1, primary screen, biochemical, small-molecule microarray, 635/667 nm fluorescence (AID 1153); conditions: higher = more signal;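 note: score merges spot fluorescence with signal-to-noise ratio from the scanned slide images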
Collected composite z-score values appear next to each entry.
The answer should be a number; do not append a unit.

INSERT INTO measurements (molecule, test_value) VALUES
  ('CC(C)C(CO)N1C(=O)[C@]2(C)C3C(=O)OCCC/C=C\[C@H]3OC23C=CCN(c2ccc(Cl)cc2)C(=O)[C@@H]13 (some centres undefined)', -0.0929),
  ('COc1ccc(C(O)C2C=CC3C(=O)N(c4ccccc4)C(=O)C3N2Nc2ccccc2)cc1OCc1ccccc1 (centres undefined)', 0.0924),
  ('CCOC(=O)C[C@H]1[C@H](OC(=O)Cc2ccc3c(c2)OCO3)[C@@H](NC(=O)C2CCCCC2)c2cc(OCCCO)ccc2N1C(=O)c1ccc2ccccc2n1', -0.106);

Query: Reported composite z-score for C[C@H]1C2=C3C(CC[C@H]4C(OCc5ccc(F)cc5C(F)(F)F)OC[C@](C)([C@@H]34)N(C(=O)OC(C)(C)C)C2)C2COC(=O)OCC21 (some centres undefined) : what is it?
Result: 0.739

* * *

assay: basal RPMI8226 viability, no added stimulus, profiling panel, cell-based, calcein-AM fluorescence, 48 h, PK04 Diversity Set (AID 1166); conditions: RPMI8226 myeloma viability, higher = more signal;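 note: cells grown under basal conditions without added stimulus; test concentration not given here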
Measurement Kind: z-score
// print number alone

Consider the reported z-score for these compounds:
INSERT INTO assay_data (compound, test_value) VALUES
  ('O=C1C[C@@](C(=O)NCC(F)(F)F)(c2ccc([N+](=O)[O-])cc2)[C@@H](c2ccc(CO)cc2)N1C1CCCCC1', 0.258),
  ('C=CC[C@@]1(C(=O)N2CCCCC2)N=C(c2ccc(OCCCO)cc2)O[C@@H]1c1ccccc1', -1.13),
  ('COCCOC(=O)N1C(=O)[C@@]2(c3cc(C#CC4(O)CCCCCC4)ccc31)[C@H](C(=O)N1CCCCCCC1)[C@H]1C(=O)O[C@H](c3ccccc3)[C@H](c3ccccc3)N1[C@@H]2c1ccc(OCCO)cc1', -2.6);

Query: Entry C[C@]1(C(=O)NCCN2CCOCC2)c2ccccc2C(=O)N(Cc2ccc(OC(F)(F)F)cc2)[C@H]1c1ccc(CO)cc1 has what z-score?
Result: 0.0667

Query: Data request, read-out z-score, for COCCOC(=O)N1C(=O)[C@@]2(c3cc(C#CCNC(N)=O)ccc31)[C@H](C(=O)N1CCCCCCC1)[C@H]1C(=O)O[C@H](c3ccccc3)[C@H](c3ccccc3)N1[C@@H]2c1ccc(O)cc1
Result: 0.337

Query: # lookup: z-score of CCCNC(=O)[C@@]1(c2ccc([N+](=O)[O-])cc2)CC(=O)N(C2CCCCC2)[C@@H]1c1ccc(CO)cc1I
Result: -1.01

Query: Which z-score is listed for CN(C)CCCNC(=O)[C@@]1(C)c2ccccc2C(=O)N(Cc2cc(C(F)(F)F)cc(C(F)(F)F)c2)[C@H]1c1ccc(CO)cc1 ?
Result: -2.36

Query: Can you share its z-score? I mean this compound: CC(C)CN1C(=O)[C@@]2(Cc3ccccc31)c1ccccc1C(=O)N(Cc1ccccc1C(F)(F)F)[C@H]2c1ccc(CO)cc1
Result: 1.2

Query: Consider the compound CC[C@@H]1[C@H]2C3C(=O)N(CC)C(=O)C3CC(=O)[C@H]2[C@H](c2ccc(C)cc2)N1S(=O)(=O)c1ccc(C)cc1 (stereo partly drawn) and give its measured z-score.
Result: -0.144

Query: Fill in: z-score of CC(C)(C)OC(=O)CC[C@]1(C(=O)NCCN2CCOCC2)N=C(c2ccc(OCCCO)cc2)O[C@H]1c1ccccc1N=[N+]=[N-] is ___
Result: -0.711

Query: GET /values?readout=z-score&item= Cc1c(NC(=O)/C(C#N)=C/C=C/c2ccccc2[N+](=O)[O-])c(=O)n(-c2ccccc2)n1C
Result: -2.1

Query: GET /values?readout=z-score&item= C#CCNC(=O)[C@H](Cc1ccccc1)NC(=O)[C@@H](N=[N+]=[N-])C(C)C
Result: 0.116

Query: Endpoint output: z-score of CCCCN1CC=CC23O[C@@H]4/C=C\CCC(C)OC(=O)C4[C@H]2C(=O)N(CCCCCCO)[C@@H]3C1=O (stereo partly drawn) . Value?
Result: -0.273

Query: Find the recorded z-score belonging to O=c1cccc(-c2cccc(Cl)c2)o1 and report it.
Result: -0.895

Query: Data request, read-out z-score, for COC(=O)C1(Cc2ccccc2)C=C2C(=C(c3ccccc3)C(=O)C2C)CN1 (stereo not drawn)
Result: -0.91

* * *

assay: P. aeruginosa biofilm formation inhibitors, primary screen, strain PAO1, LB-PBS medium, absorbance 600 nm (AID 1176); note: test concentration not given here; conditions: P. aeruginosa PAO1 growth/biofilm, A600, 12 h; higher = more signal
Active and inactive are the calls of the source. The rule behind the calls is not given here.
Measurement Kind: z-score

Some solved entries appear below for comparison.
INSERT INTO measurements (molecule, measurement_kind, test_value) VALUES
  ('CC(C)(C)OC(=O)CC[C@]1(C(=O)O)N=C(c2ccc(OCCCO)cc2)O[C@H]1c1ccccc1CN=[N+]=[N-]', 'z-score', '-0.788 (inactive)'),
  ('COc1ccc([Si](C)(C)[C@H]2[C@H](CCn3cc([C@H](O)c4ccccc4)nn3)O[C@@]3(C(=O)N(Cc4ccc(N5CCC5=O)cc4)c4ccccc43)[C@@H]2C)cc1', 'z-score', '0.401 (inactive)'),
  ('CC=CC(O)C1C=CC2C(=O)N(C)C(=O)C2N1Nc1ccc([N+](=O)[O-])cc1[N+](=O)[O-] (stereo not given)', 'z-score', '0.599 (inactive)'),
  ('O=c1cccc(-c2cccc(Cl)c2)o1', 'z-score', '-0.377 (inactive)'),
  ('CCOC(=O)C1=CC[C@@H](c2ccccc2C(F)(F)F)N(S(=O)(=O)c2ccc(C)cc2)C1', 'z-score', '-0.184 (inactive)');

Query: Tell me the measured z-score of CON(C)C(=O)C=C1C[C@@H](c2cccc(Cl)c2)O[C@@H](c2cccc(Cl)c2)O1 , please.
Result: -0.184 (inactive)
